# system.tested: HIV-1 integrase wild-type (IN1-288) (HIV-1, UniProt P12497 P12497:1148-1435)
# assay.remarks: inhibition; first activity column (headed strand transfer); other column 0.016
# recorded.conditions: G4, loop 3 inverted
attribute.measured: IC50 (nM)
Your answer should be a plain number; it is taken to be in nM.

Please give the documented IC50 of GTGGTGGGTGGGGTGGT (ssDNA, PS at first and last linkages) [T30698] 150
